Molecular target: MAPK14 (human)
Assay: Inhibition of MAPK14 Kinase Activity by PHAS-I Assay
Settings: concentration not given here
# label = Met if inhibition >= 80% else Not met

Molecule: O=C(NCCCc1[nH]nc(-c2ccc(F)cc2)c1-c1ccncc1)c1cccnc1
Class: Not met

Molecule: CCOC(=O)CCNC(=O)NCCc1[nH]nc(-c2ccc(F)cc2)c1-c1ccncc1
Class: Not met

Molecule: O=C(NCc1[nH]nc(-c2ccc(F)cc2)c1-c1ccncc1)C(F)(F)C(F)(F)C(F)(F)F
Class: Met

Molecule: Cc1ccc(C)c(C(=O)c2ccccc2NC(=O)Cn2nc(-c3ccc(F)cc3)c(-c3ccncc3)c2C)c1
Class: Met

Molecule: COC(=O)C1CN1C(=O)Cn1nc(-c2ccc(F)cc2)c(-c2ccncc2)c1C (stereo not drawn)
Class: Not met

Molecule: CCOC(=O)CC[C@H](NC(=O)Cn1nc(-c2ccc(F)cc2)c(-c2ccncc2)c1C)C(=O)OCC
Class: Not met

Molecule: O=C(NCCc1[nH]nc(-c2ccc(F)cc2)c1-c1ccncc1)Nc1cccc2ccccc12
Class: Met

Molecule: Cc1ccc(NC(=O)Cn2nc(-c3ccc(F)cc3)c(-c3ccncc3)c2C)cc1
Class: Met

Molecule: Cc1c(-c2ccncc2)c(-c2ccc(F)cc2)nn1CC(=O)NC1CCSc2ccccc21 (stereo not drawn)
Class: Not met

Molecule: O=C(CCC1CC=CC1)NCc1[nH]nc(-c2ccc(F)cc2)c1-c1ccncc1
Class: Not met

Molecule: COc1cccc(CC(=O)NCCc2[nH]nc(-c3ccc(F)cc3)c2-c2ccncc2)c1
Class: Not met

Molecule: O=S(=O)(NCCc1[nH]nc(-c2ccc(F)cc2)c1-c1ccncc1)c1ccccc1F
Class: Met

Molecule: O=S(=O)(NCCCc1[nH]nc(-c2ccc(F)cc2)c1-c1ccncc1)c1cccs1
Class: Met

Molecule: CCS(=O)(=O)NCCCc1[nH]nc(-c2ccc(F)cc2)c1-c1ccncc1
Class: Met

Molecule: CCCNC(=O)NCCc1[nH]nc(-c2ccc(F)cc2)c1-c1ccncc1
Class: Not met

Molecule: Cc1c(-c2ccncc2)c(-c2ccc(F)cc2)nn1CC(=O)N(C)CCc1ccccc1
Class: Not met

Molecule: NC(=O)NCCCc1[nH]nc(-c2ccc(F)cc2)c1-c1ccncc1
Class: Met

Molecule: O=[N+]([O-])c1ccc(S(=O)(=O)NCc2[nH]nc(-c3ccc(F)cc3)c2-c2ccncc2)cc1
Class: Not met

Molecule: O=C(NCCCc1[nH]nc(-c2ccc(F)cc2)c1-c1ccncc1)c1ccncc1
Class: Not met

Molecule: CCN1CCC(N(CC)C(=O)Cn2nc(-c3ccc(F)cc3)c(-c3ccncc3)c2C)C1 (stereo not drawn)
Class: Not met

Molecule: COc1ccccc1NC(=O)NCCc1[nH]nc(-c2ccc(F)cc2)c1-c1ccncc1
Class: Not met

The measurements presented in this section are drawn from the Kinase Knowledgebase extract (Sharma et al. 2016).
